These entries and their values trace back to ChEMBL document CHEMBL5346925.

# Protocol Text: Drug concentration in Sprague-Dawley rat plasma at 1 mg/kg, po measured after 4 hr by LC-MS/MS analysis
# Format: ADME, organism-based
Endpoint Label: concentration at 4 h (ng/mL)
Give bare numbers, in ng/mL.

Q: Request the reported concentration at 4 h associated with O=S1(=O)NCc2cccc(-c3ccc(-c4ccccc4F)cc3)c2O1
Result: 79.3

----------
# Protocol Text: Clearance in Sprague-Dawley rat at 0.1 mg/kg, iv by LC-MS/MS analysis
# Assay type: ADME, organism-based
# Particulars: in vivo
Endpoint Label: clearance (mL/min/kg)
Numbers only, in mL/min/kg.

Q: Entry O=S1(=O)NCc2cccc(-c3ccc(-c4ccccc4F)cc3)c2O1 : reported clearance = ?
Result: 12.9

----------
# Test System: Glutamate receptor ionotropic, AMPA (Rattus norvegicus) (UniProt P19491+P19492+P19493+P19490)
# Protocol Text: Agonist activity at AMPA receptor in rat Primary neuron cells assessed as potentiation of s-AMPA induced calcium flux at 1 uM incubated for 1 hr by calcium 2+ influx assay relative to s-AMPA coupled TAK-137
# Type: cell-based
Endpoint Label: Activity (%)
Numbers only, in %.

Illustrative cases are given below, each with its answer.
[
  {
    "Compound Smiles": "O=S1(=O)NCc2cccc(-c3ccc(-c4ccc(OC(F)(F)F)cc4)cc3)c2O1",
    "Observed Measurement": -3
  },
  {
    "Compound Smiles": "CC(C)(C)c1ccc(-c2ccc(-c3cccc4c3OS(=O)(=O)NC4)cc2)cc1",
    "Observed Measurement": -1.3
  },
  {
    "Compound Smiles": "O=S1(=O)NCc2c(cccc2-c2ccc(Oc3ccccc3)cc2)O1",
    "Observed Measurement": 0
  },
  {
    "Compound Smiles": "COc1ccc(-c2cccc3c2OS(=O)(=O)NC3)c(F)c1",
    "Observed Measurement": 10.3
  },
  {
    "Compound Smiles": "O=S1(=O)NCc2cccc(-c3cccc(Oc4ccccc4)c3)c2O1",
    "Observed Measurement": 1.9
  }
]

Below are some compounds; for each one, tell me its Activity.
1. CC(C)Oc1ccc(-c2ccc(-c3cccc4c3OS(=O)(=O)NC4)cc2)cc1
2. O=S1(=O)NCc2cccc(-c3ccc(-c4ccc(F)c(F)c4)cc3)c2O1

Result:
1: 3; 2: 38.7

# per-item lookup of Activity; items listed below
1. O=S1(=O)NCc2cccc(-c3ccc(-c4ccc(C(F)F)cc4)cc3)c2O1
2. O=S1(=O)NCc2cc(-c3ccc(Oc4ccccc4)cc3)ccc2O1

Result:
1: 23.9; 2: 1.4

Return reported Activity values for all items listed beneath this line.
1. O=S1(=O)NCc2ccc(-c3ccc(Oc4ccccc4)cc3)cc2O1
2. O=S1(=O)NCc2cccc(-c3ccc(-c4ccc(C(F)(F)F)cc4)cc3)c2O1
3. COc1c(C)cc(-c2cccc3c2OS(=O)(=O)NC3)cc1C
4. N#Cc1ccc(-c2cccc3c2OS(=O)(=O)NC3)cc1
5. COc1ccc(-c2cccc3c2OS(=O)(=O)NC3)cc1C(F)(F)F
6. O=S1(=O)NCc2cccc(-c3ccccc3Oc3ccccc3)c2O1
7. Cc1ccc(-c2ccc(-c3cccc4c3OS(=O)(=O)NC4)cc2F)cc1

Result:
-0.8
0.7
2.6
23.7
0.6
1
37.7

----------
# Protocol Text: AUC (0 to infinity) in Sprague-Dawley rat at 3 mg/kg, po by LC-MS/MS analysis
# Type: ADME, organism-based
# Design: dose 3 mg/kg, route po
# Particulars: in vivo
Endpoint Label: AUC(0-inf) (ng·h/mL)
Give bare numbers, in ng·h/mL.

Q: Any idea what AUC(0-inf) was measured for O=S1(=O)NCc2cccc(-c3ccc(Oc4ccccc4)cc3)c2O1 ?
Result: 328
